Cited source: PubChem BioAssay (NCI)

Tested on: NCI-H23 lung
Assay: NCI-60 one-dose screen, 48 h (100 = growth as untreated, 0 = no growth, -100 = all killed)
Settings: 10 µM unless noted
Description: Growth inhibition of the NCI-H23 human Non-Small Cell Lung tumor cell line is measured as a screen for anti-cancer activity. Cells are grown in 96 well plates and exposed to the test compound for 48 hours. Compounds are tested at a single concentration, which is 10^-5 M for most compounds. The reported endpoint is percent growth (GI% or GIPRCNT), where numbers from 0 - 100% represent growth inhibition, and numbers from -100% - 0 represent cell death. […]
The panel holds about 83,000 compounds, 20% with a hit somewhere; the sample as a whole holds those more often.
MEASURED_ENDPOINT: growth (%)
Enter your answer as a number in %; do not include the unit.

Some solved entries appear below for comparison.
>>> reported_value("Cc1nc2ccc(Cl)cc2n1C")
107
>>> reported_value("COc1ccc(-c2c(-c3cc4c(c(OC)c3OC)OCO4)noc2N)cc1")
42.5

Ask: growth lookup needed for "COc1ccc(OC)c(/C=C2\Oc3cc(O)ccc3C2=O)c1" , thanks.
Reply: 96.1

Ask: Also "CCN(c1ccc(C(=O)N2CCN(c3ccccc3)CC2)cc1)S(C)(=O)=O" , if possible.
Reply: 103

Ask: Same question for "O=C(O)c1ccccc1Oc1cc(-c2ccco2)nc(OCCBr)n1" please.
Reply: 105

Ask: Another compound to check: "COc1ccc(Sc2ccc3[nH]c(=O)nc(N)c3c2)cc1"
Reply: 101

----------
test system: SF-295 CNS; experiment: NCI-60 one-dose screen, 48 h; conditions: 10 µM unless noted
About 83,000 compounds went through this panel and 20% of them were active in at least one assay; those are over-represented in the sample as a whole. Activity calls are given as the source filed them. Rule for the calls: active = growth percent below 10; inactive = the rest.
Answer with one of the outcomes True for active, False for inactive

Would you please look over these solved cases?
>>> label_value("O=c1[nH]c(-c2ccncc2)nc2sc3c(c12)CCCCCC3")
"False"
>>> label_value("O=S(=O)(/N=C1C=C/C(=N\\S(=O)(=O)c2ccccc2)c2ccccc2\\1)c1ccccc1")
"False"
>>> label_value("O=c1[nH]c(=O)n(Cc2ccc(F)cc2)cc1F")
"False"
>>> label_value("COc1ccc(NC(=O)COc2ccccc2)c(C(N)=O)c1")
"False"

Now for a further molecule.
Ask: So what was the verdict on "c1ccc(-c2n(Cc3ccc4ccccc4c3)c3ccccc3[n+]2Cc2ccc3ccccc3c2)cc1" in this test?
Reply: True

----------
test system: SR leukemia; test: NCI-60 one-dose screen, 48 h (100 = growth as untreated, 0 = no growth, -100 = all killed); settings: 10 µM unless noted
The panel holds about 83,000 compounds, 20% with a hit somewhere; the sample as a whole holds those more often.
MEASURED_ENDPOINT: growth (%)
# value in %; strip the unit string

Consider the following illustrative entries.
>>> reported_value("CCCOC(=O)c1ccc2c(c1)[N+](=O)C(C(=O)c1ccccc1)=C(C(F)(F)F)[N+]2=O")
-41.4
>>> reported_value("Cl.Fc1c[c-]c(-c2ccccn2)c(F)c1.[Pt].c1ccc([PH+](CC[PH+](c2ccccc2)c2ccccc2)c2ccccc2)cc1")
-6.03
>>> reported_value("CCCCC(O)Cn1ncc(C(=O)OCC)c1NC(=O)NCc1ccccc1C(F)(F)F (centres undefined)")
87.9
>>> reported_value("Cn1c2ccccc2c2nn(Cc3ccccc3)c(=O)nc21")
97.7
>>> reported_value("Cc1cccc2c(=O)c3c(sc12)c(NCCNCCO)nc1ccccc13")
-44.1

Ask: GET /values?readout=growth&item= CC1CCCCN1S(=O)(=O)c1ccc(CN=C=S)cc1 (centres undefined)
Reply: 5.92

Ask: Cool, now "NS(=O)(=O)c1ccc(C(=O)N/N=C(\CS(=O)(=O)c2ccccc2)c2cc3cc(Br)ccc3o2)cc1"
Reply: 127

Ask: Try this compound next: "c1ccc2c(c1)oc1cc3c(cc12)nnc1cccn13"
Reply: 94.6
